Value source: patent US20220306653A1

- System: Molp8 multiple myeloma cell line
- test.method.notes: Molp8 multiple myeloma cell line survival assay using Annexin V and 7AAD
- Assay type: cell-based, human
- recorded.conditions: live cell percent by Annexin V/7AAD flow cytometry, 3 days incubation; each independent run listed individually; read-out: MOLP8 Apoptosis IC50
metric.name: IC50 (nM)
Give bare numbers, in nM.

Q. Please look up its IC50: "Cc1c(C(=O)O)n2c3ccc(Cl)c(c13)-c1c(nn(C)c1C)CN(C)Cc1cc(n(C)n1)CSc1cc(c3ccccc3c1)OCCC2"
A. 256
